Values from ChEMBL document CHEMBL5236547

# experimental details: Tmax in mouse at 10 mg/kg, po and measured upto 24 hrs by LCMS/MS analysis
# Format: ADME, organism-based
# test parameters: in vivo
metric: Tmax (min)

compound: C[C@@]1(O)CCC[C@H]1n1c(=O)c(C(F)F)cc2cnc(NC3CCN(S(C)(=O)=O)CC3)nc21 [EBVACICLIB]
metric: Tmax
measurement: 15

----------
The entries below come with measured Ki values attached.
# assay system: Cyclin-dependent kinase 4/cyclin D1 (Homo sapiens, UniProt P11802)
# Sequence (P11802 whole entry): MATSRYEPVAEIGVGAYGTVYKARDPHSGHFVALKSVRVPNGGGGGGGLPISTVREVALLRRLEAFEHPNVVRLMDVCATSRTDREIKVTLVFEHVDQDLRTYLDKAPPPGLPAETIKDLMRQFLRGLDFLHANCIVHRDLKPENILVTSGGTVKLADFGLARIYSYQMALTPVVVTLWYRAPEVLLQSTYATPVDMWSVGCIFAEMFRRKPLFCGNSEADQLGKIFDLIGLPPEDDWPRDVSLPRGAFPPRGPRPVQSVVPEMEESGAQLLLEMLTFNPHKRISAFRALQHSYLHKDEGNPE
# Sequence (P24385 whole entry, further chain): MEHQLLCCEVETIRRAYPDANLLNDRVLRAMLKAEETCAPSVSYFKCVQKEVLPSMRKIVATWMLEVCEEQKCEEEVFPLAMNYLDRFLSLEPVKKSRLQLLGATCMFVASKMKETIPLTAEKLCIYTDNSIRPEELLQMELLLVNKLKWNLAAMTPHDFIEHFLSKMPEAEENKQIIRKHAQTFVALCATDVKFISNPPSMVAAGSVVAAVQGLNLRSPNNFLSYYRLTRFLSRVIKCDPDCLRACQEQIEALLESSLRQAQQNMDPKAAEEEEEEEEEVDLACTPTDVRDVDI

compound: CCC(C)n1c(=O)ccc2cnc(NC3CCN(S(C)(=O)=O)CC3)nc21 (single isomer, unassigned; (-))
Ki / nM: 1.66
--
compound: CC(C)n1c(=O)ccc2cnc(NC3CCN(S(C)(=O)=O)CC3)nc21
Ki / nM: 8.33
--
compound: CCC(C)n1c(=O)ccc2cnc(NC3CCN(S(C)(=O)=O)CC3)nc21 (stereo in doubt; 17)
Ki / nM: 1.57
--
compound: CCOCc1cc2cnc(NC3CCN(S(C)(=O)=O)CC3)nc2n(C2CCCC2)c1=O
Ki / nM: 0.21
--
compound: CS(=O)(=O)N1CCC(Nc2ncc3cc(COC4CC4)c(=O)n(C4CCCC4)c3n2)CC1
Ki / nM: 0.1

----------
# experimental details: Oral bioavailability in Beagle dog at 0.5 mg/kg and measured upto 24 hrs by LCMS/MS analysis
# Format: ADME, organism-based, Canis lupus familiaris
# test parameters: in vivo

structure: C[C@@]1(O)CCC[C@H]1n1c(=O)c(C(F)F)cc2cnc(NC3CCN(S(C)(=O)=O)CC3)nc21
bioavailability, %: 59

----------
# experimental details: Tmax in dog at […], po and measured upto 24 hrs by LCMS/MS analysis
# Format: ADME, organism-based, Canis lupus familiaris
# test parameters: in vivo

structure: C[C@@]1(O)CCC[C@H]1n1c(=O)c(C(F)F)cc2cnc(NC3CCN(S(C)(=O)=O)CC3)nc21
Tmax (h): 1

----------
Below are Ki values measured for CDK6/cyclin D1 (Homo sapiens).

compound: CC(C)OCc1cc2cnc(NC3CCN(S(C)(=O)=O)CC3)nc2n(C2CCCC2)c1=O
Ki [nM]: 0.86
--
compound: CCC(C)n1c(=O)ccc2cnc(NC3CCN(S(C)(=O)=O)CC3)nc21 (stereo in doubt; 17)
Ki [nM]: 1.16
--
compound: CCOCc1cc2cnc(NC3CCN(S(C)(=O)=O)CC3)nc2n(C2CCCC2)c1=O
Ki [nM]: 1.78
--
compound: CC(C)n1c(=O)ccc2cnc(NC3CCN(S(C)(=O)=O)CC3)nc21
Ki [nM]: 6.6
--
compound: CS(=O)(=O)N1CCC(Nc2ncc3cc(COC4CC4)c(=O)n(C4CCCC4)c3n2)CC1
Ki [nM]: 1.44
--
compound: CCC(C)n1c(=O)ccc2cnc(NC3CCN(S(C)(=O)=O)CC3)nc21 (single isomer, unassigned; (-))
Ki [nM]: 2.02

----------
# experimental details: Volume of distribution at steady state in NSG mouse at 3 mg/kg, iv and measured upto 24 hrs by LCMS/MS analysis
# Type: ADME, organism-based
# test parameters: in vivo, read-out: Vdss

compound: C[C@@]1(O)CCC[C@H]1n1c(=O)c(C(F)F)cc2cnc(NC3CCN(S(C)(=O)=O)CC3)nc21 [EBVACICLIB]
Vd, L/kg: 0.9

----------
# experimental details: Oral bioavailability in NSG mouse at 10 mg/kg and measured upto 24 hrs by LCMS/MS analysis
# Type: ADME, organism-based
# test parameters: in vivo

structure: C[C@@]1(O)CCC[C@H]1n1c(=O)c(C(F)F)cc2cnc(NC3CCN(S(C)(=O)=O)CC3)nc21
bioavailability / %: 13

----------
# experimental details: Apparent permeability across apical to basolateral side in dog MDCKII-LE cells
# Assay type: ADME, cell-based, Canis lupus familiaris
# test parameters: MDCK
metric: Papp A→B

structure: C[C@@]1(O)CCC[C@H]1n1c(=O)c(C(F)F)cc2cnc(NC3CCN(S(C)(=O)=O)CC3)nc21
metric: Papp A→B
measurement: 14 ×10⁻⁶ cm/s

----------
# experimental details: Metabolic stability in human liver microsomes assessed as intrinsic clearance per mg of protein
# Assay type: ADME, Microsome
# test parameters: liver microsomes, read-out: CLH
The entries below come with measured microsomal CLint values attached.

molecule: Cc1cc2cnc(NC3CCN(S(C)(=O)=O)CC3)nc2n(C2CCCC2)c1=O
bound sign: =
microsomal CLint (µL/min/mg): 118
//
molecule: CS(=O)(=O)N1CCC(Nc2ncc3cc(COC4CC4)c(=O)n(C4CCCC4)c3n2)CC1
bound sign: =
microsomal CLint (µL/min/mg): 126
//
molecule: CC(C)n1c(=O)ccc2cnc(NC3CCN(S(C)(=O)=O)CC3)nc21
bound sign: =
microsomal CLint (µL/min/mg): 14.1
//
molecule: CS(=O)(=O)N1CCC(Nc2ncc3cc(CCO)c(=O)n(C4CCCC4)c3n2)CC1
bound sign: <
microsomal CLint (µL/min/mg): 23.9
//
molecule: C[C@H]1CCC[C@H]1n1c(=O)ccc2cnc(NC3CCN(S(C)(=O)=O)CC3)nc21
bound sign: >
microsomal CLint (µL/min/mg): 482
//
molecule: CC(C)OCc1cc2cnc(NC3CCN(S(C)(=O)=O)CC3)nc2n(C2CCCC2)c1=O
bound sign: <
microsomal CLint (µL/min/mg): 13.6
//
molecule: CS(=O)(=O)N1CCC(Nc2ncc3ccc(=O)n(C4CCCC4)c3n2)CC1
bound sign: =
microsomal CLint (µL/min/mg): 81.5
//
molecule: CS(=O)(=O)N1CCC(Nc2ncc3ccc(=O)n(C4CCCCCC4)c3n2)CC1
bound sign: =
microsomal CLint (µL/min/mg): 367
//
molecule: CCC(C)n1c(=O)ccc2cnc(NC3CCN(S(C)(=O)=O)CC3)nc21 (single isomer, unassigned; (-))
bound sign: =
microsomal CLint (µL/min/mg): 122
//
molecule: C[C@@]1(O)CCC[C@H]1n1c(=O)ccc2cnc(NC3CCN(S(C)(=O)=O)CC3)nc21
bound sign: =
microsomal CLint (µL/min/mg): 36.4
//
molecule: Cc1cc2cnc(NC3CCN(S(C)(=O)=O)CC3)nc2n([C@@H]2CCC[C@@]2(C)O)c1=O (relative stereo)
bound sign: =
microsomal CLint (µL/min/mg): 67.4

----------
# experimental details: Plasma clearance in NSG mouse at 3 mg/kg, iv and measured upto 24 hrs by LCMS/MS analysis
# Type: ADME, organism-based

structure: C[C@@]1(O)CCC[C@H]1n1c(=O)c(C(F)F)cc2cnc(NC3CCN(S(C)(=O)=O)CC3)nc21
clearance: 63 mL/min/kg

----------
pKi: −log10 of the molar value.
Below are pKi values measured for CDK9/cyclin T1 (Homo sapiens).
metric: pKi

compound: CS(=O)(=O)N1CCC(Nc2ncc3cc(COC4CC4)c(=O)n(C4CCCC4)c3n2)CC1
bound sign: <
measurement: 5.85
//
compound: C[C@@]1(O)CCC[C@H]1n1c(=O)ccc2cnc(NC3CCN(S(C)(=O)=O)CC3)nc21
bound sign: =
measurement: 7.52
//
compound: CC(C)n1c(=O)ccc2cnc(NC3CCN(S(C)(=O)=O)CC3)nc21
bound sign: =
measurement: 6.96
//
compound: C[C@@]1(O)CCC[C@H]1n1c(=O)c(C(F)F)cc2cnc(NC3CCN(S(C)(=O)=O)CC3)nc21
bound sign: =
measurement: 7.71
//
compound: CCC(C)n1c(=O)ccc2cnc(NC3CCN(S(C)(=O)=O)CC3)nc21 (stereo in doubt; 17)
bound sign: =
measurement: 7.64
//
compound: CCC(C)n1c(=O)ccc2cnc(NC3CCN(S(C)(=O)=O)CC3)nc21 (single isomer, unassigned; (-))
bound sign: =
measurement: 7.74
//
compound: CCOCc1cc2cnc(NC3CCN(S(C)(=O)=O)CC3)nc2n(C2CCCC2)c1=O
bound sign: <
measurement: 5.92
//
compound: CC(C)OCc1cc2cnc(NC3CCN(S(C)(=O)=O)CC3)nc2n(C2CCCC2)c1=O
bound sign: <
measurement: 5.92
//
compound: C[C@H]1CCC[C@H]1n1c(=O)ccc2cnc(NC3CCN(S(C)(=O)=O)CC3)nc21
bound sign: =
measurement: 6.67
//
compound: C[C@@]1(O)CCC[C@H]1n1c(=O)c(Cl)cc2cnc(NC3CCN(S(C)(=O)=O)CC3)nc21
bound sign: =
measurement: 7.43

----------
# Tested on: OVCAR-3
# experimental details: cells
# test parameters: Homo sapiens, OVCAR-3, 144 h
# Description: Antiproliferative activity against human OVCAR-3 cells assessed as inhibition of cell proliferation incubated for 6 days by CyQuant assay

compound: C[C@@]1(O)CCC[C@H]1n1c(=O)c(C(F)F)cc2cnc(NC3CCN(S(C)(=O)=O)CC3)nc21 [EBVACICLIB]
EC50 [nM]: 45

----------
# experimental details: Metabolic stability in human liver microsomes assessed as intrinsic clearance per mg of protein
# Assay type: ADME, Microsome
# test parameters: liver microsomes, read-out: CLH
metric: log10 of microsomal CLint (log10 of the value in µL/min/mg)

structure: CS(=O)(=O)N1CCC(Nc2ncc3ccc(=O)n(C4CCCCC4)c3n2)CC1
measurement: 2.14

structure: CS(=O)(=O)N1CCC(Nc2ncc3cc(CO)c(=O)n(C4CCCC4)c3n2)CC1
measurement: 1.09

structure: CS(=O)(=O)N1CCC(Nc2ncc3cc(Cl)c(=O)n(C4CCCC4)c3n2)CC1
measurement: 1.66

structure: COCCc1cc2cnc(NC3CCN(S(C)(=O)=O)CC3)nc2n(C2CCCC2)c1=O
measurement: 2.43

structure: C[C@@]1(O)CCC[C@H]1n1c(=O)c(CC(F)F)cc2cnc(NC3CCN(S(C)(=O)=O)CC3)nc21
measurement: 1.28
